Tested on: PC-3
assay-details: NCI tumour cell line growth inhibition, 48 h
Activity calls are given as the source filed them. Cut-off read from the data, not from the text of the source: active = GI50 up to about 1.1 µM and inactive = higher.
Assignment: determine reported GI50 for the given compounds.

Solved cases below.
compound	GI50
O=C(/C=C/c1ccccc1)CCC1C(=O)NC(=S)NC1=O	> 100 µM (inactive)
CC(C)(C)c1ccc(O)c(C[N+](C)(C)C)c1	> 100 µM (inactive)
c1ccc2c[n+](CCCC[n+]3ccc4ccccc4c3)ccc2c1	> 100 µM (inactive)

Give GI50 for each listed item.
1. O=C(O)CCC1(c2ccccc2)NC(=O)NC1=O (stereo unspecified)
2. Cc1ccccc1NC(=S)N/N=C1\C(=O)Nc2ccccc21

Result string:
> 100 µM (inactive)
> 100 µM (inactive)

Query string: Requested read-out: GI50. Entry: CC1CC(C)(C)CC(OCCN2CCCCC2)(c2ccccc2)C1 (stereo unspecified)
Result string: 12.2 µM (inactive)

---

Tested on: NCI-H23
assay-details: NCI tumour cell line growth inhibition, 48 h
The source made the active and inactive calls. Cut-off read from the data, not from the text of the source: active = GI50 up to about 1.1 µM and inactive = higher.
quantity: GI50

Reference set, count: 5
compound	GI50
CC(C)(C)c1ccc(CN2CCN(C(c3ccccc3)c3ccc(Cl)cc3)CC2)cc1 (stereo unspecified)	83.6 µM (inactive)
CCOC(=O)C1=C(c2ccccc2)C12N(Cc1ccccc1)C(=O)C2(c1ccccc1)c1ccccc1 (stereo unspecified)	39.1 µM (inactive)
O=C1c2cccc3c2C(=O)c2c(cccc21)OCCOCCOCCOCCO3	> 100 µM (inactive)
CCOC(=O)c1csc(-c2nc(CCNC(=O)c3ccccc3)sc2Cl)n1	40.9 µM (inactive)
CC(=S)NNC(=O)c1ccncc1	> 100 µM (inactive)

Batch request: GI50 per item, same order as input.
1. CN1CCN([C@H]2C[C@H]3[C@@H]4CC=C5C[C@@H](O)CC[C@]5(C)[C@H]4CC[C@]3(C)[C@H]2O)CC1
2. CCOC(=O)C1S/C(=N\c2ccc(C)c(C)c2)N=C1C (stereo unspecified)
3. COc1cc2c[n+](C)c3c(c2cc1OC)Cc1cc2c(cc1-3)OCO2
4. Cc1ccc(/C=N\NC2c3cc(Cl)ccc3Nc3nc(O)nc(C)c32)cc1 (stereo unspecified)
5. OC1COC(OCc2ccccc2)C(O)C1O (stereo unspecified)
6. COc1ccc2[nH]c3c([N+](=O)[O-])ccc(NCCCN(C)C)c3/c(=N/CCCN(C)C)c2c1

Result string:
1. > 100 µM (inactive)
2. > 100 µM (inactive)
3. > 100 µM (inactive)
4. > 100 µM (inactive)
5. > 100 µM (inactive)
6. 1.56 µM (inactive)

---

Can you tell me GI50 for the items I'm about to list?
System: OVCAR-5
assay-details: NCI tumour cell line growth inhibition, 48 h
The source made the active and inactive calls. Rule as the data show it: active = GI50 up to about 1.1 µM and inactive = higher.

These solved cases illustrate the format of a correct answer.
compound	GI50
Nn1c(Cc2ccc(Cl)cc2)n[nH]c1=O	> 100 µM (inactive)
CC(=O)N[C@@H]1C(O)CN2C(=O)C(=O)O[C@H](C(O)CO)[C@@H]12 (stereo not given in full)	> 100 µM (inactive)
NNC(=O)CSc1nnc(CCCCCCCCc2nnc(SCC(=O)NN)o2)o1	> 100 µM (inactive)
c1ccc(C(=NNc2cnc3ccccc3n2)c2ccccn2)cc1	2.59 µM (inactive)
Cc1cc2c(c(S(=O)(=O)c3ccccc3[N+](=O)[O-])c1)NCCC2	> 100 µM (inactive)
CC[C@H]1C=CCC[C@@]2(C[C@@H]3CC[C@@H]4[C@H](C(=O)OCCCCCCCCCCCCCCCC(=O)O)[C@]5(CCC[C@@H](C)O5)NC(=[N+]34)N2)O1 [CRAMBESCIDIN 657]	0.221 µM (active)
CC(NP(=O)(c1ccccc1)c1ccccc1)c1ccccc1 (stereo not given)	> 100 µM (inactive)
Oc1ccc(O)c(CNc2ccccc2)c1	21.6 µM (inactive)
CN(C)CCNc1c([N+](=O)[O-])cc2c3c(cccc13)C(=O)N(CCN(C)C)C2=O	2.03 µM (inactive)

# evaluate next
Query string: Any idea what GI50 was measured for "c1ccc2c[n+](CCCC[n+]3ccc4ccccc4c3)ccc2c1" ?
Result string: > 100 µM (inactive)
